SYSTEM TESTED: recombinant human CD3ε/δ heterodimer (human) (UniProt P07766)
Sequence (P07766 23-126, stated change not applied, chain 1 of 2): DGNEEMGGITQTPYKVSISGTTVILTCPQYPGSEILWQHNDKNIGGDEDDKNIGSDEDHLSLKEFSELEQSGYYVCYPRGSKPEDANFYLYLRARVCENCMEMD
Sequence (P04234 22-105, stated change not applied, chain 2 of 2, further chain): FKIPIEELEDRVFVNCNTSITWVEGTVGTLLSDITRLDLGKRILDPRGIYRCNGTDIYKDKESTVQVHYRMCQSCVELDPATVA
PROTOCOL SUMMARY: ELISA, coated CD3ε/δ
For each entry below, report its Absorbance (450 nm) value.
Numbers only.

BINDER: B05 (antibody, human IgG1, lambda, L234A L235A, V domains shown) VH: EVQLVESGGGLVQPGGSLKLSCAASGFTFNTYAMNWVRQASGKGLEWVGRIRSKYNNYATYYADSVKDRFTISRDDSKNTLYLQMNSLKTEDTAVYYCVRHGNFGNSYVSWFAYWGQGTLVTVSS VL: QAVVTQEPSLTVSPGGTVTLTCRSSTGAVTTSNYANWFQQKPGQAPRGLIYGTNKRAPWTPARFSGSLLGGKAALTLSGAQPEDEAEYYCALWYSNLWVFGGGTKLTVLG
NUMBER: 0.102

Please supply Absorbance (450 nm) for each of the following items, keeping them in order.
1. D04 (antibody, human IgG1, lambda, L234A L235A, V domains shown) VH: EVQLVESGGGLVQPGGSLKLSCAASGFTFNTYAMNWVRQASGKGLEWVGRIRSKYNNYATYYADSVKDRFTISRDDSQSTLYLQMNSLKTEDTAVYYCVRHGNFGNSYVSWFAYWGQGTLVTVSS VL: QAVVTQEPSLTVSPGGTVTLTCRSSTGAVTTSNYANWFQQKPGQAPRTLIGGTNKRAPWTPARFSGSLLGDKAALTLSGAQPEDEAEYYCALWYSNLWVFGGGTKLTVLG
2. H08 (antibody, human IgG1, lambda, L234A L235A, V domains shown) VH: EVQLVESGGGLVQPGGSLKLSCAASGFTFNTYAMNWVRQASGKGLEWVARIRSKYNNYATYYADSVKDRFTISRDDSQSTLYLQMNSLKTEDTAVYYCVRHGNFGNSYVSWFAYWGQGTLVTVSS VL: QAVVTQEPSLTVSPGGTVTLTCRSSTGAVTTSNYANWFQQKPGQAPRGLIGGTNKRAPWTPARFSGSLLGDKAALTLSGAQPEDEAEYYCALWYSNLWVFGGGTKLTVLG
3. B12 (antibody, human IgG1, lambda, L234A L235A, V domains shown) VH: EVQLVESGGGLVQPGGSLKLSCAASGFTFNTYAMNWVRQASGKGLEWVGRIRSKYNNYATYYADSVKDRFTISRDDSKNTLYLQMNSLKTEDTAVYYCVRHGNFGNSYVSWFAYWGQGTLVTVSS VL: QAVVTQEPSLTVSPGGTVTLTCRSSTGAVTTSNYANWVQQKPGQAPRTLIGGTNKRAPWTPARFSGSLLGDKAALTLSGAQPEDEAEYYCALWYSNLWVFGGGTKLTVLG
4. E10 (antibody, human IgG1, lambda, L234A L235A, V domains shown) VH: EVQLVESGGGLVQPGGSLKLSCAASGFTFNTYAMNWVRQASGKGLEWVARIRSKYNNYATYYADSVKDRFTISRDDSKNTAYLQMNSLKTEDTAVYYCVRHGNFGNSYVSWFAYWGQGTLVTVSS VL: QAVVTQEPSLTVSPGGTVTLTCRSSTGAVTTSNYANWVQQKPGQAPRTLIYGTNKRAPWTPARFSGSLLGDKAALTLSGAQPEDEAEYYCALWYSNLWVFGGGTKLTVLG

Key:
1: 0.091; 2: 0.118; 3: 0.098; 4: 0.083
